Ref: patent US7825093B2

Tested on: IL-2 production in human whole blood
Reported Conditions: read-out: WB/IL-2 (IC50)
Readout Name: IC50 (nM)
One number for each entry, in nM.

# annotated cases, reported IC50 shown
Quick one: IC50 for GVIINVKCKISRQCLKPCKDAGMRFGKCMNGKCHCGGG [compound 1274] ? 2.64

I have this sequence here, GIINVKCKISAQCLKPCRDAGMRFGKCMNGKCACTPK [compound 4916] , and I need its recorded IC50. 1.5

---
Item GVIINVKCKISRQCLKPCKDAGMRFGKCMNGKCHCYPK [compound 298] has what recorded IC50? 0.639
